normalized RNA/DNA level with ligand (log10) listing for selected variants.
B1: library; a variant is named by its letters at N, in order (parent)
chain: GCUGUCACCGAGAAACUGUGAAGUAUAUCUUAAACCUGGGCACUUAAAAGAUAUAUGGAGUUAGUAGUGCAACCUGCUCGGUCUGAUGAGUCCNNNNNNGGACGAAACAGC

- Variants of: B1
- test description: normalized RNA/DNA level with ligand (relative to sTRSVctl = 100) (log10 (% of sTRSVctl)); HEK293T; ligand: cyclic di-GMP (c-di-GMP-II aptamer); ligand concentration (+) RNA-Seq: 1 mM; higher = less ribozyme self-cleavage, higher mRNA level
- experimental setup: reporter: mCherry (pCS4076), ligand present: yes
measurement name: normalized RNA/DNA level with ligand (log10)

[[record]]
mutation_spec = "AAGGUU"
value_observed = 1.8

[[record]]
mutation_spec = "GUGAAC"
value_observed = 1.69

[[record]]
mutation_spec = "AUAAUC"
value_observed = 1.77

[[record]]
mutation_spec = "ACAUGG"
value_observed = 1.61

[[record]]
mutation_spec = "CCAUCU"
value_observed = 1.76

[[record]]
mutation_spec = "GCGAAG"
value_observed = 1.63

[[record]]
mutation_spec = "GCUCCG"
value_observed = 1.92

[[record]]
mutation_spec = "GCGGCU"
value_observed = 1.91

[[record]]
mutation_spec = "UCUUCU"
value_observed = 1.84

[[record]]
mutation_spec = "GAAUGU"
value_observed = 1.76

[[record]]
mutation_spec = "CGCAGG"
value_observed = 1.84

[[record]]
mutation_spec = "GCAACC"
value_observed = 1.79

[[record]]
mutation_spec = "UACAUU"
value_observed = 1.78

[[record]]
mutation_spec = "ACGACU"
value_observed = 1.73

[[record]]
mutation_spec = "CGGUGG"
value_observed = 1.79

[[record]]
mutation_spec = "UACGGA"
value_observed = 1.76

[[record]]
mutation_spec = "AUUCUA"
value_observed = 1.78

[[record]]
mutation_spec = "UGAUAG"
value_observed = 1.83

[[record]]
mutation_spec = "UUUUAC"
value_observed = 1.87

[[record]]
mutation_spec = "CCGUUG"
value_observed = 1.49

[[record]]
mutation_spec = "GCUAAU"
value_observed = 1.74

[[record]]
mutation_spec = "UUCCAU"
value_observed = 1.85

[[record]]
mutation_spec = "GCUCGU"
value_observed = 1.83

[[record]]
mutation_spec = "CCUCGG"
value_observed = 1.94

[[record]]
mutation_spec = "UAGAAG"
value_observed = 1.8

[[record]]
mutation_spec = "CCGGCA"
value_observed = 1.79

[[record]]
mutation_spec = "UUCAAG"
value_observed = 1.82

[[record]]
mutation_spec = "GCACGC"
value_observed = 1.78

[[record]]
mutation_spec = "CCUAAU"
value_observed = 1.73

[[record]]
mutation_spec = "AGUAGA"
value_observed = 1.56

[[record]]
mutation_spec = "GGUAGA"
value_observed = 1.55

[[record]]
mutation_spec = "UCCUUU"
value_observed = 1.9

[[record]]
mutation_spec = "GUUAAC"
value_observed = 1.8

[[record]]
mutation_spec = "UGUAGG"
value_observed = 1.85

[[record]]
mutation_spec = "ACUCCU"
value_observed = 1.9

[[record]]
mutation_spec = "CCAUGC"
value_observed = 1.82

[[record]]
mutation_spec = "UCUGCU"
value_observed = 1.88

[[record]]
mutation_spec = "GCAGUG"
value_observed = 1.78

[[record]]
mutation_spec = "CCGCAU"
value_observed = 1.77

[[record]]
mutation_spec = "ACAAAA"
value_observed = 1.52

[[record]]
mutation_spec = "GUAUUA"
value_observed = 1.75

[[record]]
mutation_spec = "CAAAUG"
value_observed = 1.82

[[record]]
mutation_spec = "UCCGAG"
value_observed = 1.79

[[record]]
mutation_spec = "GUACGC"
value_observed = 1.88

[[record]]
mutation_spec = "ACUCAG"
value_observed = 1.77

[[record]]
mutation_spec = "CUUUAG"
value_observed = 1.84

